Tested on: normal primary NK cells, pool 3 (3 donors) (IL-2 2.5 ng/mL)
Assay: percent inhibition of viability; higher = more inhibition;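 also: normalised to DMSO-only wells as negative and benzethonium chloride as positive control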
Conditions: 72 h; 10000 nM
Rule for this label: y means percent inhibition of viability is less than 40%; n means percent inhibition of viability is at least 40%.

Reference set (3 entries):
Just wondering, is percent inhibition of viability of CC[C@H](CC#N)OC(=O)N[C@@H](C)c1cccc(NC(=O)Nc2ccc(-c3cnco3)c(OC)c2)c1 [AVN944] (max concentration tested 10000 nM) below 40%? y

Just wondering, is percent inhibition of viability of CC/C(=C(\c1ccc(O)cc1)c1ccc(OCCN(C)C)cc1)c1ccccc1 [4-hydroxytamoxifen] (max concentration tested 10000 nM) below 40%? n

Just wondering, is percent inhibition of viability of CN1CCN(c2nc(C3=C(c4c[nH]c5ccccc45)C(=O)NC3=O)c3ccccc3n2)CC1 [Sotrastaurin] (max concentration tested 10000 nM) below 40%? y

New cases:
Just wondering, is percent inhibition of viability of CO[C@@H](C(=O)N1Cc2[nH]nc(NC(=O)c3ccc(N4CCN(C)CC4)cc3)c2C1)c1ccccc1 [Danusertib] (max concentration tested 10000 nM) below 40%? y

Just wondering, is percent inhibition of viability of C=C(c1ccc(C(=O)O)cc1)c1cc2c(cc1C)C(C)(C)CCC2(C)C [Bexarotene] (max concentration tested 10000 nM) below 40%? y

Just wondering, is percent inhibition of viability of Cn1cc(C2=C(c3cn(C4CCN(Cc5ccccn5)CC4)c4ccccc34)C(=O)NC2=O)c2ccccc21 [Enzastaurin] (max concentration tested 10000 nM) below 40%? y

Just wondering, is percent inhibition of viability of Cc1c(CN2CCN(C(=O)[C@H](C)O)CC2)sc2c(N3CCOCC3)nc(-c3cnc(N)nc3)nc12 [Apitolisib] (max concentration tested 10000 nM) below 40%? n

Just wondering, is percent inhibition of viability of N#Cc1ccc2[nH]c(O)c(-c3ccc(CN4CCOCC4)cn3)c2c1 [AZD-1080] (max concentration tested 10000 nM) below 40%? y

Just wondering, is percent inhibition of viability of CC(C)NC[C@@H](C(=O)N1CCN(c2ncnc3c2[C@H](C)C[C@H]3O)CC1)c1ccc(Cl)cc1 [Ipatasertib] (max concentration tested 10000 nM) below 40%? y

Just wondering, is percent inhibition of viability of NC(=S)N/N=C/c1ncccc1N [Triapine] (max concentration tested 10000 nM) below 40%? y

Just wondering, is percent inhibition of viability of Cc1c(N)nc([C@H](CC(N)=O)NC[C@H](N)C(N)=O)nc1C(=O)N[C@H](C(=O)N[C@H](C)[C@@H](O)[C@H](C)C(=O)N[C@H](C(=O)NCCc1nc(-c2nc(C(=O)NCCC[S+](C)C)cs2)cs1)[C@@H](C)O)[C@@H](OC1OC(CO)C(O)C(O)C1OC1OC(CO)C(O)C(OC(N)=O)C1O)c1cnc[nH]1 (stereo partly specified) [Bleomycin] (max concentration tested 10000 nM) below 40%? n

----------
System: YT (IL-2 2.5 ng/mL)
Test: percent inhibition of viability; higher = more inhibition
Conditions: 72 h; 100 nM
ENDPOINT: percent inhibition of viability (%)
Answers are plain numbers, in %.

Example results:
Please report the recorded percent inhibition of viability for Cn1c(Nc2ccc(C(F)(F)F)cc2)nc2cc(Oc3ccnc(-c4ncc(C(F)(F)F)[nH]4)c3)ccc21 [RAF265] (max concentration tested 1000 nM) . 6.57

Please report the recorded percent inhibition of viability for C=C(c1ccc(C(=O)O)cc1)c1cc2c(cc1C)C(C)(C)CCC2(C)C [Bexarotene] (max concentration tested 10000 nM) . 5.09

Please report the recorded percent inhibition of viability for N#Cc1ccc2[nH]c(O)c(-c3ccc(CN4CCOCC4)cn3)c2c1 [AZD-1080] (max concentration tested 10000 nM) . -2.61

Please report the recorded percent inhibition of viability for Nc1nc(OCc2cc(Br)cs2)c2[nH]cnc2n1 [Lomeguatrib] (max concentration tested 10000 nM) . -3.85

Please report the recorded percent inhibition of viability for CS(=O)(=O)N1CCN(Cc2cc3nc(-c4cccc5[nH]ncc45)nc(N4CCOCC4)c3s2)CC1 [Pictilisib] (max concentration tested 10000 nM) . 5.07

Please report the recorded percent inhibition of viability for NC1(c2ccc(-c3nc4ccn5c(=O)[nH]nc5c4cc3-c3ccccc3)cc2)CCC1 [MK-2206] (max concentration tested 1000 nM) . 2.26

Quick one: give me percent inhibition of viability for each item below, same order please.
1. C[C@]12O[C@H](C[C@]1(O)CO)n1c3ccccc3c3c4c(c5c6ccccc6n2c5c31)CNC4=O [Lestaurtinib] (max concentration tested 1000 nM)
2. Cc1cc2c(F)c(Oc3ncnn4cc(OC[C@@H](C)O)c(C)c34)ccc2[nH]1 [Brivanib] (max concentration tested 1000 nM)
3. O=C(O)c1ccc(-c2c[nH]c3ncc(-c4ccccc4)cc23)cc1C1CCCC1 (max concentration tested 10000 nM)
4. Cc1c(CN2CCN(C(=O)[C@H](C)O)CC2)sc2c(N3CCOCC3)nc(-c3cnc(N)nc3)nc12 [Apitolisib] (max concentration tested 10000 nM)
5. C[C@@H]1C[C@H]2[C@@H]3CCC4=CC(=O)C=C[C@]4(C)[C@@]3(F)[C@@H](O)C[C@]2(C)[C@@]1(O)C(=O)CO [Dexamethasone] (max concentration tested 10000 nM)
6. O=P1(NCCCl)OCCCN1CCCl (configuration not stated) [Ifosfamide] (max concentration tested 10000 nM)

1: 55.1; 2: -0.95; 3: 6.38; 4: 4.58; 5: 22.4; 6: -6.55
